Origin of the recorded values: patent US20170145086A1

Molecular target: T1, HA-GCN4 hAPRIL (amino acid residues 105-250) (human, UniProt O75888 105-250)
T1 sequence: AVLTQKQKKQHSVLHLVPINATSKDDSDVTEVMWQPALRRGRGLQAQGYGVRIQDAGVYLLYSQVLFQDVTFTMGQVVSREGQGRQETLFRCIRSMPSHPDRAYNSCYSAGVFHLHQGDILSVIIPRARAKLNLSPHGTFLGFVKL
Assay: cell-based or functional assay
Overview of reported IC50 (inhibition of APRIL-mediated BCMA NFκB signaling) across a group of binders:

Some binders with known IC50 (inhibition of APRIL-mediated BCMA NFκB signaling) results, for comparison:
{"binder": "2419-1306 (antibody, V domains shown) VH: QVQLVQSGAEVKKPGASVKVSCKASGYTFTDYTIHWVRQATGQGLEWMGWIYPLRGSINYAQKFQGRVTMTANKSISTVYMELSSLRSEDTAVYFCARHGAYYSNAFDYWGQGTLVTVSS VL: EIVMTQSPATLSVSPGERATLSCRASESVDNDGIRFLHWYQQKPGQAPRLLIYRASTRATGIPARFSGSGSRTEFTLTISSLQSEDFAVYYCQQSNKDPYTFGGGTKVEIK", "test.result": "~0.3 nM"}
{"binder": "monoclonal antibody 2419-0205 (antibody, IgG2, V domains shown) VH: QVQLVQSGAEVKKPGSSVKVSCKASGYTFTDYTIHWVRQAPGQGLEWMGWIYPLRGSINYAQKFQGRVTITADKSTSTAYMELSSLRSEDTAVYFCARHGAYYSNAFDYWGQGTLVTVSS VL: EIVMTQSPATLSVSPGERATLSCRASESVDNDGIRFLHWYQQKPGQAPRLLIYRASNRETGIPARFSGSGSGTEFTLTISSLQSEDFAVYYCQQSNKDPYTFGGGTKVEIK", "test.result": "~0.32 nM"}
{"binder": "monoclonal antibody 4035-062 (antibody, IgG1, V domains shown) VH: QVQLQESGPGLVKPSETLSLTCTVSGFSLTIYDVHWVRQPPGKGLEWIGVIWSDGSTDYNPSLKSRVTISKDTSKNQVSLKLSSVTAADTAVYYCARNWVDQAWFAYWGQGTLVTVSS VL: DIQMTQSPSSLSASVGDRVTITCRASKNIYSYLAWYQQKPGKAPKLLVYNAKTLPEGVPSRFSGSGSGTDFTLTISSLQPEDFATYYCQHHYGTPLTFGQGTKLEIK", "test.result": "~0.38 nM"}
{"binder": "monoclonal antibody 4540-063 (antibody, IgG1, V domains shown) VH: QVQLVQSGAELKKPGASVKVSCKASGYTFADYYMNWVRQAPGQGLEWMGWIFPGSGSTYYNQKFQGRVTMTVDKSSSTAYMELSRLRSDDTAVYYCARGDSGRAMDYWGQGTLVTVSS VL: DIQMTQSPSSLSASVGDRVTITCQASQDINKYLAWYQHKPGKAPKLLIHYTSTLETGVPSRFSGSGSGTDFTFTISSLQPEDIATYYCLQYDNLLTFGGGTKVEIK", "test.result": "~1.04 nM"}

Now for a further binder.
[Q] // query IC50 (inhibition of APRIL-mediated BCMA NFκB signaling) value for entry monoclonal antibody 4540 (antibody, V domains shown, mouse-derived) VH: QVQLQQSGPELVKPGASVKISCKASGYTFADYYINWVKQRPGQGLEWIGWIFPGSGSTYYNEKFKGKATLTVDKSSSTAYMLLSSLTSEDSAVYFCARGDSGRAMDYWGQGTSVTVSS VL: DIQMTQSPSSLSASLGGKVTITCKASQDINKYIAWYQHKPGKGPRLLIHYTSTLQSGIPSRFSGSGSGRDYSFSISNLEPEDNATYYCLQYDNLLTFGAGTKLELK
[A] ~0.81 nM
